All values here come from patent US20240116985A1.

# ASSAYED SYSTEM: full-length beta-Catenin (Uniprot ID P35222) (Homo sapiens (Human)) (UniProt P35222)
# Sequence (P35222 whole entry): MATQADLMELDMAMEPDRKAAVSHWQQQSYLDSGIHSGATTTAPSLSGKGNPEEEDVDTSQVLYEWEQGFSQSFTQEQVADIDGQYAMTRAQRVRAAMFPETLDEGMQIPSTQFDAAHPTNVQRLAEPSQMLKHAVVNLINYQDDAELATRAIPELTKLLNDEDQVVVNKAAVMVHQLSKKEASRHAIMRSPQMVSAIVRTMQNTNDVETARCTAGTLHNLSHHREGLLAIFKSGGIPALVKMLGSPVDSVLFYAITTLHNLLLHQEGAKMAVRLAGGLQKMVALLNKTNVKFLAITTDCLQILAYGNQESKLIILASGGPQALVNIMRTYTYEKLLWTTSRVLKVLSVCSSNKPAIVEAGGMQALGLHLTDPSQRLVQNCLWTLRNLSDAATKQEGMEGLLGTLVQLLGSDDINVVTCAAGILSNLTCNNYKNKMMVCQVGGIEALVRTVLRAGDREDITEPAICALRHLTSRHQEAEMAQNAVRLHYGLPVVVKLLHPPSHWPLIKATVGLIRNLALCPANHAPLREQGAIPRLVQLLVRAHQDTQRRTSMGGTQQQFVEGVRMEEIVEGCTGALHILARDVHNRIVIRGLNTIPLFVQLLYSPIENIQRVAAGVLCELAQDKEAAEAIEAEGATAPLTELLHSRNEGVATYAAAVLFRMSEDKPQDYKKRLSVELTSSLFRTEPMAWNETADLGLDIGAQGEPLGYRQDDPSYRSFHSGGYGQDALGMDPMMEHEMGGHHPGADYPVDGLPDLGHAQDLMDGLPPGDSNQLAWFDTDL
# ASSAY: fluorescence polarization competition; full-length beta-catenin; competitor 5FAM-TCF4(10-53) probe
Starred links: 1 amine or outer side, 2 acyl side, 3 side chain; linkers in the order of their positions; H or OH if unused. Positions of bridges follow the written chain, without caps; N, C: chain ends. Non-standard residues stand in square brackets, D forms with d. Primed or numbered codes have the meaning given here. ξ: configuration not given here. PyrS2″ = (S)-3-amino-1-((pent-4-en-1-yloxy)carbonyl)pyrrolidine-3-carboxylic acid (stapling residue), C=CCCCOC(=O)N1CC[C@@](N[*:1])(C(=O)[*:2])C1; B5(4) = 2,2-bis(4-pentenyl)glycine = 2-amino-2-(pent-4-en-1-yl)hept-6-enoic acid (stitching residue), C=CCCCC(CCCC=C)(N[*:1])C(=O)[*:2]; TfeGA = (S)-2-amino-3-((carboxymethyl)(2,2,2-trifluoroethyl)amino)propanoic acid, O=C([C@H](CN(CC(=O)[*:3])CC(F)(F)F)N[*:1])[*:2]; 4TriA = (S)-2-amino-3-(1H-1,2,3-triazol-4-yl)propanoic acid, O=C([C@H](Cc1c[nH]nn1)N[*:1])[*:2]; Phe(2-Cl) = N[C@@H](Cc1ccccc1Cl)C(=O)O; Bta = N[C@@H](Cc1csc2ccccc12)C(=O)O; αAllylPro = C=CC[C@@]1(C(=O)O)CCCN1; tBuAla = CC(C)(C)C[C@H](N)C(=O)O; 3Thi = N[C@@H](Cc1ccsc1)C(=O)O; Cha = N[C@@H](CC1CCCCC1)C(=O)O; S8 = C=CCCCCCC[C@](C)(N)C(=O)O; ξβ3hD = NC(CC(=O)O)CC(=O)O
ATTRIBUTE MEASURED: EC50 (nM)

BINDER	EC50 / nM
Ac-[αAllylPro]D[tBuAla][B5(4)]DDAAFL[S8][Phe(2-Cl)][Bta][4TriA]-NH2 (staple 1-4, 4-11) [I-1192]	81.5

[a] Ac-[αAllylPro][ξβ3hD][tBuAla][B5(4)]D[TfeGA]AAFN[PyrS2″][3Thi][Bta]Q-NH2 (staple 1-4, 4-11) [I-1161]
[b] Ac-[αAllylPro]D[Cha][B5(4)]DTAAFT[PyrS2″][3Thi][Bta]Q-NH2 (staple 1-4, 4-11) [I-1173]
stdin: Hey, which is lower on measured EC50, a or b ? Reply with the label of the item you choose.
stdout: b
(b: 12 nM, a: 24 nM)
